Test: in vitro
Settings: human, hela cells, % viability
I'd appreciate it if you could supply viability at 28.5 h, 10 µM values for the items below.
State just the number; it will be interpreted in %.

In: For the compound CCc1nn(CC(=O)NC2CCCC2)c(=O)c2cc3ccsc3n12 [CBK284134] , what viability at 28.5 h, 10 µM is on record?
Out: 98.4

In: I have this compound here, CC(=O)Nc1cc(S(=O)(=O)N2CCOCC2)c(Br)cc1C [CBK034334] , and I need its recorded viability at 28.5 h, 10 µM.
Out: 92.8

In: Any idea what its viability at 28.5 h, 10 µM is? The compound is CCc1ccc(-c2cc3c(=O)[nH]nc(S)n3n2)cc1 [CBK288485]
Out: 124

In: Data request, read-out viability at 28.5 h, 10 µM, for CCC(C)NC(=O)Cn1c([C@H]2CCCO2)cc2cccnc21 (some centres unmarked) [CBK282874]
Out: 88.1

In: Which viability at 28.5 h, 10 µM value belongs to O=C(NCCc1ccccc1)c1ccccc1NS(=O)(=O)N1CCCC1 [CBK268407] ?
Out: 80.5

###

Experiment: in vitro
Conditions: human, hela cells, % viability
Provide the reported viability at 28.5 h, 10 µM of each item.
Hi! Could you send only the number? It should be in %, unit omitted.

In: viability at 28.5 h, 10 µM for COc1cc2c(cc1CNC1CCCc3c1cnn3C)OC(C)C2 (stereo not shown) [CBK304296C] ?
Out: 94.6

In: Tell me the measured viability at 28.5 h, 10 µM of CCOc1ccc(-c2ccnc(N3CCOC(CN)C3)n2)cc1C(=O)O (stereo not shown) [CBK307644] , please.
Out: 84

In: Returns the measured viability at 28.5 h, 10 µM for the input molecule. Input: Cc1cc(Cl)ccc1OCC(=O)NC(=S)Nc1cccc(-c2nc3ccccc3s2)c1 [CBK264802]
Out: 105

In: Entry under review: CN(CC(=O)O)C(=O)c1ccc(S(=O)(=O)N2CCCCC2)cc1 [CBK265715] . Reported viability at 28.5 h, 10 µM?
Out: 112

In: Entry under review: Nc1ncc(-c2cc(C(F)(F)F)cc(C(F)(F)F)c2)nc1N1CCC[C@@H]1CO [CBK063501] . Reported viability at 28.5 h, 10 µM?
Out: 93.3

In: Any idea what viability at 28.5 h, 10 µM was measured for O=C(CCc1ccco1)N1CCCCC1c1nc2ccccc2[nH]1 (stereo not shown) [CBK283711] ?
Out: 99.9

In: // returns reported viability at 28.5 h, 10 µM for input O=C(O)/C(SC1=NC2=Nc3ccccc3C2N=N1)=C1/C(=O)Nc2ccccc21 (stereo not shown) [CBK021943]
Out: 100

In: Tell me the measured viability at 28.5 h, 10 µM of CCc1nn(CC(=O)N2CCCC2)c(=O)c2cc3occc3n12 [CBK283748] , please.
Out: 93.3

In: Entry under review: C=CCN1C(=O)CC2(C1=O)C(=O)N(CCCN(C)S(C)(=O)=O)c1ccc(Cl)cc12 (stereo not shown) [CBK075432] . Reported viability at 28.5 h, 10 µM?
Out: 97.3

In: Given the entry Cc1c(NC(=O)COc2ccc([N+](=O)[O-])cc2)cccc1-c1nc2ncccc2o1 [CBK263912] , report its measured viability at 28.5 h, 10 µM.
Out: 105

In: Need viability at 28.5 h, 10 µM, item COc1ccc(C(=O)N(CCC(C)C)Cc2nc(C)c(C)n2Cc2ccccc2Cl)c(OC)c1 [CBK093441]
Out: 86.2

In: Data request, read-out viability at 28.5 h, 10 µM, for Cc1nc(COc2ccc(C(=O)N3CCCC(C(N)=O)C3)cc2)no1 (stereo not shown) [CBK305660]
Out: 84.2

In: # viability at 28.5 h, 10 µM lookup, item CC(=O)c1ccc(S(=O)(=O)N2CCCCC2C)cc1 (stereo not shown) [CBK069211]
Out: 90

In: # viability at 28.5 h, 10 µM lookup, item O=S(=O)(Nc1ccc(-c2nnn[nH]2)cc1)c1cc(Cl)c(Cl)s1 [CBK154745]
Out: 116

In: Entry under review: CCOC(=O)CNS(=O)(=O)c1ccc(C(F)(F)F)cc1[N+](=O)[O-] [CBK034446] . Reported viability at 28.5 h, 10 µM?
Out: 102

In: Would you mind telling me what viability at 28.5 h, 10 µM value was observed for Cc1cc(F)c(S(=O)(=O)NCCN2CCOCC2)cc1NC(=O)c1ccc(Br)o1 [CBK059091C] ?
Out: 89.7

In: Given CN(C)CCCN1C(=O)C(O)=C(C(=O)c2cccs2)C1c1cccnc1 (stereo not shown) [CBK264511] , state its recorded viability at 28.5 h, 10 µM.
Out: 88.2

In: Could you tell me which viability at 28.5 h, 10 µM is on file for FC(F)(F)c1cccc(OCCN2CCOCC2)c1 [CBK269669C] ?
Out: 96.8

In: Sample CC(C)[C@H](NC(=O)C1CC(=O)N(c2ccc(F)cc2)C1)C(=O)N1CCCC1C(=O)O (stereo partly shown) [CBK286723] — what was its viability at 28.5 h, 10 µM?
Out: 95

In: May I ask what viability at 28.5 h, 10 µM has been recorded for CNC(=O)NC(=O)CN1CCC(CNc2ncccc2C#N)C1 (stereo not shown) [CBK306126] ?
Out: 77.4

In: Which viability at 28.5 h, 10 µM value is on record for CC(=O)c1ccc(S(=O)(=O)Nc2ccc(C)cc2)cc1 [CBK045380] ?
Out: 108

In: Given COC[C@H]1CCCN1C(=O)Cn1[nH]c(C)c(Cc2c(Cl)cccc2Cl)c1=O [CBK115407] , state its recorded viability at 28.5 h, 10 µM.
Out: 103

In: Which viability at 28.5 h, 10 µM is reported for this molecule? Cn1cc(C2CCCN2C(=O)c2cccc(C#N)c2)cn1 (stereo not shown) [CBK304849]
Out: 98

In: What measured viability at 28.5 h, 10 µM goes with COc1cc(F)cc(OC2CCNCC2)c1NC(=O)C1=CC(=O)CC(C)(C)O1 [CBK050352T] ?
Out: 96.9

In: Given the entry Brc1cn2ccnc2c(NCc2ccccn2)n1 [CBK038024] , report its measured viability at 28.5 h, 10 µM.
Out: 88.7

In: What value of viability at 28.5 h, 10 µM has been reported for the following molecule? O=C(O)C[S+]([O-])c1ccccc1C(=O)O (stereo not shown) [CBK263244]
Out: 96.3

In: Field request: viability at 28.5 h, 10 µM | item: CN(C)CCCNC(=S)NCc1ccc(Cl)cc1 [CBK266910]
Out: 97.3

In: GET /values?readout=viability at 28.5 h, 10 µM&item= CC(C)(O)C#Cc1ccc(C(=O)N2CCN(Cc3ccccc3)CC2)cc1 [CBK263100]
Out: 80.3

In: Please report the recorded viability at 28.5 h, 10 µM for CC1=Nc2c(cnn2-c2ccccc2)C2=NCCCN12 [CBK287928] .
Out: 91.6

In: Using the record for COc1ccc(-c2cc(C(=O)NC(C)c3ccccc3)c3cc(C(C)C)ccc3n2)cc1 (stereo not shown) [CBK294466] , report its viability at 28.5 h, 10 µM.
Out: 101

In: Which viability at 28.5 h, 10 µM reading was recorded for the molecule O=C(O)c1nnn(-c2ccccc2)c1-c1ccncc1 [CBK288041] ?
Out: 95.1

In: Entry CC(=O)N1C[C@H](O)C[C@H]1C(=O)N1CC[C@H]2NC(=O)[C@H](Cc3ccccc3)NC(=O)C3(C/C=C/C[C@H]2C1)CCOCC3 [CBK292204] has what viability at 28.5 h, 10 µM?
Out: 88.7

In: # get_value(readout='viability at 28.5 h, 10 µM', item= CCn1cc(C(=O)O)c(=O)c2cc(F)c(N3CCN(C(=S)NC(=O)c4c(-c5ccccc5)noc4C)CC3)cc21 [CBK267490] )
Out: 86.8

In: What viability at 28.5 h, 10 µM value was documented for this molecule, O=C(COc1ccc(F)cc1)NCc1ccc(-c2csnn2)cc1 [CBK149315] ?
Out: 98.3

In: Field request: viability at 28.5 h, 10 µM | item: CN1CCc2c(C#N)c(N)n(N)c(=S)c2C1 [CBK264055]
Out: 101

In: Record request: viability at 28.5 h, 10 µM value, item O=C(c1cncnc1)N1CCCC2(CCN(C(=O)c3cc(F)c(F)cc3F)C2)C1 (stereo not shown) [CBK131564]
Out: 106

In: I am curious: what viability at 28.5 h, 10 µM value has been reported for Clc1cc(Cl)cc(-c2cn3ccnc3c(NCc3ccncc3)n2)c1 [CBK066664] ?
Out: 94.3
